- ASSAY SUMMARY: Plasma levels of 9-deoxo-16,16-dimethyl-9-methylene-PGE2 by radioimmunoassay after insertion of a suppository
- Assay type: in vivo, Rhesus monkeys (Macaca mulatta)
- DETAILS: rhesus monkey, plasma, 30 mg, plasma; Monkey #11; .5 Hours; 30 mg Potassium Salt in H15 Plus 2% CSD Suppositories; read-out: Drug Levels
Where a name gives a salt, the structure may show the parent alone.
RECORDED METRIC: concentration at 0.5 h (ng/mL)
Respond with the bare value in ng/mL.

Recorded concentration at 0.5 h of C=C1C[C@@H](O)[C@H](/C=C/[C@@H](O)C(C)(C)CCCC)[C@H]1C/C=C\CCCC(=O)O [Potassium Salt] , please.
14

----------
- ASSAY SUMMARY: Plasma levels of 9-deoxo-16,16-dimethyl-9-methylene-PGE2 by radioimmunoassay after insertion of a suppository
- Assay type: in vivo, Rhesus monkeys (Macaca mulatta)
- DETAILS: rhesus monkey, plasma, 30 mg, plasma; Monkey #12 (pregnant animal with uterine recording); .5 Hours; 30 mg Potassium Salt in H15 Plus 2% CSD Suppositories; read-out: Drug Levels
Structures can show the parent of a compound that is named as a salt.
RECORDED METRIC: concentration at 0.5 h (ng/mL)
Note: unit ng/mL is implicit; provide only the numeric part.

Look up concentration at 0.5 h: C=C1C[C@@H](O)[C@H](/C=C/[C@@H](O)C(C)(C)CCCC)[C@H]1C/C=C\CCCC(=O)O [Potassium Salt]
55.7

----------
- ASSAY SUMMARY: Plasma levels of 9-deoxo-16,16-dimethyl-9-methylene-PGE2 by radioimmunoassay after insertion of a suppository
- Type: in vivo, Rhesus monkeys (Macaca mulatta)
- DETAILS: rhesus monkey, plasma, 30 mg, plasma; Monkey #17; 1.5 Hours; 30 mg Potassium Salt in H15 Plus 2% CSD + 10% Triacetin Suppositories; read-out: Drug Levels
Structures can show the parent of a compound that is named as a salt.
RECORDED METRIC: concentration at 1.5 h (ng/mL)
API: value field is a number in ng/mL; no unit string.

Can you look up the measured concentration at 1.5 h of C=C1C[C@@H](O)[C@H](/C=C/[C@@H](O)C(C)(C)CCCC)[C@H]1C/C=C\CCCC(=O)O [Potassium Salt] for me?
1.86

----------
- ASSAY SUMMARY: Plasma levels of 9-deoxo-16,16-dimethyl-9-methylene-PGE2 by radioimmunoassay after insertion of a suppository
- Format: in vivo, Rhesus monkeys (Macaca mulatta)
- DETAILS: rhesus monkey, plasma, 30 mg, plasma; Monkey #10; 4 Hours; 30 mg Potassium Salt in H15 Plus 2% CSD Suppositories; read-out: Drug Levels
Where a name gives a salt, the structure may show the parent alone.
RECORDED METRIC: concentration at 4 h (ng/mL)
Kindly answer with a numeric value in ng/mL, unit omitted.

Param item = C=C1C[C@@H](O)[C@H](/C=C/[C@@H](O)C(C)(C)CCCC)[C@H]1C/C=C\CCCC(=O)O [Potassium Salt] ; retrieve measured concentration at 4 h.
20.7

----------
- ASSAY SUMMARY: Plasma levels of 9-deoxo-16,16-dimethyl-9-methylene-PGE2 by radioimmunoassay after insertion of a suppository
- Format: in vivo, Rhesus monkeys (Macaca mulatta)
- DETAILS: rhesus monkey, plasma, 30 mg, plasma; Monkey #7; 0.25 Hours; 30 mg Free Acid in H15 Plus 2% CSD Suppositories; read-out: Drug Levels
RECORDED METRIC: concentration at 0.25 h (ng/mL)
# unit: ng/mL | format: bare number

Record request: concentration at 0.25 h value, item C=C1C[C@@H](O)[C@H](/C=C/[C@@H](O)C(C)(C)CCCC)[C@H]1C/C=C\CCCC(=O)O [Free Acid, 9-deoxo-16,16-dimethyl-9-methylene-PGE2]
39.2

----------
- ASSAY SUMMARY: Plasma levels of 9-deoxo-16,16-dimethyl-9-methylene-PGE2 by radioimmunoassay after insertion of a suppository
- Assay type: in vivo, Rhesus monkeys (Macaca mulatta)
- DETAILS: rhesus monkey, plasma, 30 mg, plasma; Monkey #16; 3 Hours; 30 mg Potassium Salt in H15 Plus 2% CSD + 10% Triacetin Suppositories; read-out: Drug Levels
- Experimental: A. Midtrimester pregnant female Rhesus monkeys (Macaca mulatta) are used. […] D. The plasma levels of 9-deoxo-16,16-d1methy1-9-methy1ene-PGE2 in monkeys treated with 6 formulations containing either 9-deoxo-16,16-dimethyl-9-methylene-PGE2 free acid or potassium salt are shown in Tables 1-6. In general, higher blood levels are measured in pregnant Rhesus monkeys than in non-pregnant monkeys.
Counter-ions that a name gives are not always drawn.
RECORDED METRIC: concentration at 3 h (ng/mL)
Enter your answer as a number in ng/mL; do not include the unit.

Quick one: concentration at 3 h for C=C1C[C@@H](O)[C@H](/C=C/[C@@H](O)C(C)(C)CCCC)[C@H]1C/C=C\CCCC(=O)O [Potassium Salt] ?
45.5

----------
- ASSAY SUMMARY: Plasma levels of 9-deoxo-16,16-dimethyl-9-methylene-PGE2 by radioimmunoassay after insertion of a suppository
- Format: in vivo, Rhesus monkeys (Macaca mulatta)
- DETAILS: rhesus monkey, plasma, 30 mg, plasma; Monkey #12 (pregnant animal with uterine recording); 2 Hours; 30 mg Potassium Salt in H15 Plus 2% CSD Suppositories; read-out: Drug Levels
Counter-ions that a name gives are not always drawn.
RECORDED METRIC: concentration at 2 h (ng/mL)
I only need the number, in ng/mL, no unit after it.

Can you share its concentration at 2 h? I mean this compound: C=C1C[C@@H](O)[C@H](/C=C/[C@@H](O)C(C)(C)CCCC)[C@H]1C/C=C\CCCC(=O)O [Potassium Salt]
66.5

----------
- ASSAY SUMMARY: Plasma levels of 9-deoxo-16,16-dimethyl-9-methylene-PGE2 by radioimmunoassay after insertion of a suppository
- Format: in vivo, Rhesus monkeys (Macaca mulatta)
- DETAILS: rhesus monkey, plasma, 30 mg, plasma; Monkey #6 (pregnant animal with uterine recording); 3 Hours; 30 mg Potassium Salt in H15 Suppositories; read-out: Drug Levels
Structures can show the parent of a compound that is named as a salt.
RECORDED METRIC: concentration at 3 h (ng/mL)
Reply numerically in ng/mL, unit not repeated.

Param item = C=C1C[C@@H](O)[C@H](/C=C/[C@@H](O)C(C)(C)CCCC)[C@H]1C/C=C\CCCC(=O)O [Potassium Salt] ; retrieve measured concentration at 3 h.
41.7

----------
- ASSAY SUMMARY: Plasma levels of 9-deoxo-16,16-dimethyl-9-methylene-PGE2 by radioimmunoassay after insertion of a suppository
- Assay type: in vivo, Rhesus monkeys (Macaca mulatta)
- DETAILS: rhesus monkey, plasma, 30 mg, plasma; Monkey #11; 4 Hours; 30 mg Potassium Salt in H15 Plus 2% CSD Suppositories; read-out: Drug Levels
Structures can show the parent of a compound that is named as a salt.
RECORDED METRIC: concentration at 4 h (ng/mL)
# number only, unit ng/mL dropped from output

Query (compound): C=C1C[C@@H](O)[C@H](/C=C/[C@@H](O)C(C)(C)CCCC)[C@H]1C/C=C\CCCC(=O)O [Potassium Salt] ; field requested: concentration at 4 h
18.7

----------
- ASSAY SUMMARY: Plasma levels of 9-deoxo-16,16-dimethyl-9-methylene-PGE2 by radioimmunoassay after insertion of a suppository
- Assay type: in vivo, Rhesus monkeys (Macaca mulatta)
- DETAILS: rhesus monkey, plasma, 30 mg, plasma; Monkey #18; 24 Hours; 30 mg Potassium Salt in H15 Plus 2% CSD + 10% Triacetin Suppositories; read-out: Drug Levels
- Description: A. Midtrimester pregnant female Rhesus monkeys (Macaca mulatta) are used. […] D. The plasma levels of 9-deoxo-16,16-d1methy1-9-methy1ene-PGE2 in monkeys treated with 6 formulations containing either 9-deoxo-16,16-dimethyl-9-methylene-PGE2 free acid or potassium salt are shown in Tables 1-6. In general, higher blood levels are measured in pregnant Rhesus monkeys than in non-pregnant monkeys.
Counter-ions that a name gives are not always drawn.
RECORDED METRIC: concentration at 24 h

Any idea what its concentration at 24 h is? The compound is C=C1C[C@@H](O)[C@H](/C=C/[C@@H](O)C(C)(C)CCCC)[C@H]1C/C=C\CCCC(=O)O [Potassium Salt]
8.31 ng/mL

----------
- ASSAY SUMMARY: Plasma levels of 9-deoxo-16,16-dimethyl-9-methylene-PGE2 by radioimmunoassay after insertion of a suppository
- Type: in vivo, Rhesus monkeys (Macaca mulatta)
- DETAILS: rhesus monkey, plasma, 30 mg, plasma; Monkey #9 (pregnant animal with uterine recording); 6 Hours; 30 mg Free Acid in H15 Plus 2% CSD Suppositories; read-out: Drug Levels
RECORDED METRIC: concentration at 6 h (ng/mL)
Answer format: numeric, ng/mL implied, no suffix.

So what's the measured concentration at 6 h for this one? C=C1C[C@@H](O)[C@H](/C=C/[C@@H](O)C(C)(C)CCCC)[C@H]1C/C=C\CCCC(=O)O [Free Acid, 9-deoxo-16,16-dimethyl-9-methylene-PGE2]
32

The reported numbers originate from patent EP0097439A2.
